Experiment description: Selectivity index, ratio of EC50 for MT4 cells to EC50 for HIV1
Assay type: cell-based
Run parameters: human, MT4 cells; read-out: Selectivity index
Observed property: selectivity ratio
// keep it numeric: no unit symbol after the value

Some entries whose results are on file:
Ask | Please give measured selectivity ratio of the following entry: `Clc1ccc(CSc2nnc(-c3ccsc3)n2Cc2ccccc2)cc1Cl`
Reply | 1.2

Ask | Please give measured selectivity ratio of the following entry: `Cc1nnc(SCc2ccccc2)n1Cc1ccccc1`
Reply | 2

Ask | Please give measured selectivity ratio of the following entry: `c1ccc(Cn2c(SCc3ccncc3)nnc2-c2ccsc2)cc1`
Reply | 1

Ask | Please give measured selectivity ratio of the following entry: `Clc1ccccc1CSc1nnc(-c2cccs2)n1Cc1ccccc1`
Reply | 35.2

Ask | Please give measured selectivity ratio of the following entry: `Clc1cccc(Cl)c1CSc1nnc(-c2cccs2)n1Cc1ccccc1`
Reply | 1.7

Ask | Please give measured selectivity ratio of the following entry: `c1ccc(CSc2nnc(-c3ccco3)n2Cc2ccccc2)cc1`
Reply | 5.2

Ask | Please give measured selectivity ratio of the following entry: `Clc1ccccc1CSc1nnc(-c2ccsc2)n1Cc1ccccc1`
Reply | 62

Ask | Please give measured selectivity ratio of the following entry: `Clc1cccc(CSc2nnc(-c3cccs3)n2Cc2ccccc2)c1`
Reply | 5.3

Ask | Please give measured selectivity ratio of the following entry: `c1ccc(Cn2c(SCc3cccnc3)nnc2-c2ccsc2)cc1`
Reply | 2

Further cases:
Ask | Please give measured selectivity ratio of the following entry: `c1ccc(Cn2c(SCc3ccccn3)nnc2-c2cccs2)cc1`
Reply | 5

Cited source for all entries: ChEMBL document CHEMBL1140818
